biological target: T1, purified human monomeric 4-1BB (human, UniProt Q07011 24-186); experiment: SPR, mean n=3;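 further: antibodies captured on anti-human Fc chip, 4-1BB injected as five-point two-fold series from 40 nM by single-cycle kinetics at 25 °C, sensorgrams fitted to 1:1 Langmuir model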
T1 construct: the assay used the 4-1BB part released by Factor Xa with the Fc removed; also called h4-1BB; human 4-1BB
T1 sequence (Q07011 other isoform, or with tags, fused parts or gaps limits assumed): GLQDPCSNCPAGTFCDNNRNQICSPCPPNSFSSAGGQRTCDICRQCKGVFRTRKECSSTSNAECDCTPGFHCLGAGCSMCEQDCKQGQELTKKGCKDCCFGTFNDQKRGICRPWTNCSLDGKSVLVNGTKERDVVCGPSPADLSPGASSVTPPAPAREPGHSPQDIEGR
We begin with a simple list: items and their reported pKd.
Scale: pKd equals -log10([C]), with [C] in mol/L.

Known pKd results, listed for orientation:
{"binder": "v28698 (antibody, human IgG1, kappa, L234A L235A, V domains shown, also called humanized 5G8 H1L4) VH: QVQLQESGPGLVKPSETLSLTCTVSGFSLISYGVHWIRQPPGKGLEWIGVIWSGGSTDYNPSLKSRVTISVDTSKNQFSLKLSSVTAADTAVYYCARNPLTATVMDYWGQGTLVTVSS VL: DIQMTQSPSSLSASVGDRVTVTCRASQNVGTNVAWYQQKPGKAPKALIYSASYRDSGVPSRFSGSGSGTDFTLTISSVQPEDLATYYCQQYNSYPLTFGGGTKLEIKR", "pKd": 5.95}
{"binder": "v28688 (antibody, human IgG1, kappa, L234A L235A, V domains shown, also called humanized 1G1 H2L2) VH: EVQLVESGGGLVQPGGSLRLSCAASGFTFSEFGMHWVRQAPGKGLEWVAYISSGGSTIYYADSVKGRFTISRDNAKNSLYLQMNSLRAEDTAVYYCARDWVDYWGQGTLLTVSS VL: EIVLTQSPATLSLSPGERATLSCKASENVGSYVSWYQQKPGQAPRLLIYGASNRYTGVPARFSGSGSGTDFTLTISSLEPEDFAVYYCGQSYSYPLTFGGGTKVEIKR", "pKd": 7.16}

Consider now this further binder.
The binder identified as v20023 (antibody, human IgG1, kappa, L234A L235A, V domains shown, Mouse-human chimera; also called 1G1; 1G1 mouse-human parental chimera) VH: EVQLVESGGGLVKPGGSRKLSCAASGFTFSEFGMHWVRQAPDKGLKWVAYISSGGSTIYYADTVKGRFTISRDNAKNTLFLQMTSLRSEDTAMYYCARDWVDYWGQGTTLTVSS VL: NIVMTQSPKSMSMSVGERVTLSCKASENVGSYVSWYQQKPEKSPKLLIYGASNRYTGVPDRFTGSGSATDFTLTISSVQAEDLADYHCGQSYSYPLTFGAGTKLELKR registered its pKd at 7.30
